Taken from patent US20150086555A1.

Test target: recombinant soluble homotrimeric HA of A/swine/Ontario/01911-2/99 (H4N6) (Influenza A virus A/Swine/Ontario/01911-2/99 (H4N6))
Assay summary: trimeric HA microarray, transfection supernatant set 5
Stated conditions: remark: other sources report otherwise
Reported Trimeric HA Binding: RLU values follow for various binders
Numbers only here, please. The scale is RLU.

Record excerpt, results attached:
>>> experimental_value("TCN-543 (5081_G23) (antibody, V domains shown) VH: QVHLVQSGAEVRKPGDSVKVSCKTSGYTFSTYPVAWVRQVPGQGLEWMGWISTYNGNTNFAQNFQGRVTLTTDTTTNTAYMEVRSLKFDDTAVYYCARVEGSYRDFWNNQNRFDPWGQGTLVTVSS VL: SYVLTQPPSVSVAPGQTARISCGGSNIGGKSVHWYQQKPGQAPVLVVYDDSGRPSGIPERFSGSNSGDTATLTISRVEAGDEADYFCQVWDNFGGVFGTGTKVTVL")
2870
>>> experimental_value("TCN-542 (5079_A16) (antibody, V domains shown) VH: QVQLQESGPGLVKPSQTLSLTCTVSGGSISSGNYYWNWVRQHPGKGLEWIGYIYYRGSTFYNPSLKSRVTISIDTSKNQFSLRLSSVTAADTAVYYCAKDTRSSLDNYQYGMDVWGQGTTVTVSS VL: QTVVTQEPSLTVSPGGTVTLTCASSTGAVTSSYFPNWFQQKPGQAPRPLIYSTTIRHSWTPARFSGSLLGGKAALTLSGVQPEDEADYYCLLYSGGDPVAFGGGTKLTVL")
14300
>>> experimental_value("TCN-538 (3206_O17) (antibody, V domains shown) VH: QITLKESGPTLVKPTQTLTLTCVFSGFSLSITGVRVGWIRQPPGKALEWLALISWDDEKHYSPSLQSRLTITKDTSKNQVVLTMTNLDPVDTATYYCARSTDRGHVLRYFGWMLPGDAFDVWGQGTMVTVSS VL: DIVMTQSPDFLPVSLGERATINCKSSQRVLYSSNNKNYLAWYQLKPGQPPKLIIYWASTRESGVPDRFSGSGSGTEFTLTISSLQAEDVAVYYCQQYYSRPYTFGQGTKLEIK")
3350
>>> experimental_value("TCN-544 (5082_A19) (antibody, V domains shown) VH: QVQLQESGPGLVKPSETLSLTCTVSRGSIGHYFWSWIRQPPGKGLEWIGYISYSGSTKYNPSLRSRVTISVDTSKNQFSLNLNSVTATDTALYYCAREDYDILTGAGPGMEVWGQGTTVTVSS VL: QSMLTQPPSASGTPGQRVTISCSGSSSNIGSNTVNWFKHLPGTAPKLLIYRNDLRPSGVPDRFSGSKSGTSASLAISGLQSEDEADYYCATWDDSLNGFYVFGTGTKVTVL")
2390
>>> experimental_value("TCN-546 (5089_L08) (antibody, V domains shown) VH: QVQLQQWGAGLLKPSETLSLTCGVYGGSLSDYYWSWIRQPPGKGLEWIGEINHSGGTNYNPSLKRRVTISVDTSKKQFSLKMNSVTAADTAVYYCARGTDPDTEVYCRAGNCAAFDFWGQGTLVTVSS VL: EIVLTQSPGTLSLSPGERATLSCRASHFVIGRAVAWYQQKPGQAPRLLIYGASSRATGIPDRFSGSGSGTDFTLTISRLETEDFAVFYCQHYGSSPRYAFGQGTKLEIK")
4610

Attention now turns to another entry.
QUERY: I am curious: what Trimeric HA Binding: RLU value has been reported for TCN-537 (3194_D21) (antibody, V domains shown) VH: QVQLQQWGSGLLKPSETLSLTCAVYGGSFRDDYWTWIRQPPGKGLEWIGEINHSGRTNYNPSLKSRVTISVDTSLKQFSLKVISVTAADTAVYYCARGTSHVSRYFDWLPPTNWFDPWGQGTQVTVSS VL: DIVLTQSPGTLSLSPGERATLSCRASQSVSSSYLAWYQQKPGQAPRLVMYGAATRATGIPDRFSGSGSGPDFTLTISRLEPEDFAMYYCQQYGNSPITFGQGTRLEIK ?
RESULT: 3280
